Values compiled from paper PMC5069690.

- System: PHH spheroids
- PROTOCOL_SUMMARY: Repeated-exposure toxicity in PHH spheroids with or without BA mixture, cellular ATP content;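 further: primary human hepatocyte spheroids dosed every second day with compound, with or without a bile acid mixture, viability read as cellular ATP by luminescence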
- REPORTED_CONDITIONS: PHH spheroids, 8 days co-exposure with BAs vs compound alone
# if value of CIx (mean of the independent experiments) reaches 0.9, tag Fulfilled; if it stays below, tag Not fulfilled

Inquiry: Hello, I need to know if CC(=O)Nc1ccc(O)cc1 has measured CIx (mean of the independent experiments) not below 0.9. Thanks!
Reply text: Fulfilled

Inquiry: Hello, I need to know if COc1ccccc1Oc1c(NS(=O)(=O)c2ccc(C(C)(C)C)cc2)nc(-c2ncccn2)nc1OCCO has measured CIx (mean of the independent experiments) not below 0.9. Thanks!
Reply text: Not fulfilled

Inquiry: Hello, I need to know if Cc1c(C)c2c(c(C)c1O)CCC(C)(COc1ccc(CC3SC(=O)NC3=O)cc1)O2 (centres unmarked) has measured CIx (mean of the independent experiments) not below 0.9. Thanks!
Reply text: Not fulfilled

Inquiry: Hello, I need to know if CN(C)[C@@H]1C(O)=C(C(N)=O)C(=O)[C@@]2(O)C(O)=C3C(=O)c4c(O)cccc4[C@@](C)(O)[C@H]3C[C@@H]12 has measured CIx (mean of the independent experiments) not below 0.9. Thanks!
Reply text: Fulfilled

====

Record form. Attribute: CC50. Fill in for each entry.
- Test system: HepaRG spheroids
- PROTOCOL_SUMMARY: Repeated-exposure toxicity in HepaRG spheroids with or without BA mixture, cellular ATP content
- Assay type: cell-based, human
- REPORTED_CONDITIONS: Homo sapiens, HepaRG, 336 h, 14 days repeated exposure, compound alone, ATP, one value per independent experiment, read-out: Without BA EC50
Dear colleague, please send the value followed by its unit.

CC50 reading for CC(=O)Nc1ccc(O)cc1 : 1000 µM

CC50 reading for COc1ccccc1Oc1c(NS(=O)(=O)c2ccc(C(C)(C)C)cc2)nc(-c2ncccn2)nc1OCCO : 115 µM

CC50 reading for CN(C)CCCN1c2ccccc2Sc2ccc(Cl)cc21 : 14 µM

CC50 reading for CN(C)[C@@H]1C(O)=C(C(N)=O)C(=O)[C@@]2(O)C(O)=C3C(=O)c4c(O)cccc4[C@@](C)(O)[C@H]3C[C@@H]12 : 121 µM

====

- System: multi-donor PHH spheroids
- PROTOCOL_SUMMARY: Repeated-exposure toxicity in multi-donor PHH spheroids with or without BA mixture, albumin secretion
- Assay type: cell-based, human
- REPORTED_CONDITIONS: both, human, 14 days
- Experimental: The cells were seeded in PHH medium (Williams’ medium E containing 100 units/ml penicillin, 100 μg/ml streptomycin, 2 mM L-glutamine, 10 μg/ml insulin, 5.5 μg/ml transferrin, 6.7 ng/ml sodium selenite, 100 nM dexamethasone) supplemented with 10% fetal bovine serum. […] When PHH had reassembled into compact aggregates (day 4–6 after seeding), spheroids were shifted to serum-free PHH medium. […] The spheroids were maintained in serum-free PHH medium. […]
ENDPOINT: Cholestatic Index (EC50 (+BA) / EC50 (-BA))
# output: bare number, no unit

Cholestatic Index (EC50 (+BA) / EC50 (-BA)) reading for Cc1c(C)c2c(c(C)c1O)CCC(C)(COc1ccc(CC3SC(=O)NC3=O)cc1)O2 (centres unmarked) : 0.63

Cholestatic Index (EC50 (+BA) / EC50 (-BA)) reading for CN(CCOc1ccc(CC2SC(=O)NC2=O)cc1)c1ccccn1 (centres unmarked) : 0.89

Cholestatic Index (EC50 (+BA) / EC50 (-BA)) reading for COc1ccccc1Oc1c(NS(=O)(=O)c2ccc(C(C)(C)C)cc2)nc(-c2ncccn2)nc1OCCO : 0.53

Cholestatic Index (EC50 (+BA) / EC50 (-BA)) reading for CN(C)CCCN1c2ccccc2Sc2ccc(Cl)cc21 : 0.38

Cholestatic Index (EC50 (+BA) / EC50 (-BA)) reading for Cc1ccc(C(=O)c2cc(O)c(O)c([N+](=O)[O-])c2)cc1 : 0.93

====

- Tested on: HepaRG spheroids
- PROTOCOL_SUMMARY: Repeated-exposure toxicity in HepaRG spheroids with or without BA mixture, cellular ATP content
- Assay type: cell-based, human
- REPORTED_CONDITIONS: 8 days co-exposure with BAs vs compound alone
- Procedure: Cryopreserved differentiated HepaRG cells (Biopredic International, France) were thawed according to the supplier’s instructions. The cells were seeded in Williams’ medium E with GlutaMAX^TM containing the thaw, seed and general purpose additive (ADD670; Biopredic International). The cells were seeded at a density of 2,000 viable cells per well in ULA plates. […]
ENDPOINT: CIx (mean of the independent experiments)
# output: bare number, no unit

CIx (mean of the independent experiments) reading for CC(=O)Nc1ccc(O)cc1 : 1.02

CIx (mean of the independent experiments) reading for COc1ccccc1Oc1c(NS(=O)(=O)c2ccc(C(C)(C)C)cc2)nc(-c2ncccn2)nc1OCCO : 0.60

CIx (mean of the independent experiments) reading for CN(C)[C@@H]1C(O)=C(C(N)=O)C(=O)[C@@]2(O)C(O)=C3C(=O)c4c(O)cccc4[C@@](C)(O)[C@H]3C[C@@H]12 : 1.05

CIx (mean of the independent experiments) reading for Cc1c(C)c2c(c(C)c1O)CCC(C)(COc1ccc(CC3SC(=O)NC3=O)cc1)O2 (centres unmarked) : 0.71

CIx (mean of the independent experiments) reading for CN(C)CCCN1c2ccccc2Sc2ccc(Cl)cc21 : 0.87
